These entries and their values trace back to ChEMBL document CHEMBL1201862.

Overview of recorded GI50 for various compounds
# Test system: LOX IMVI
# procedure text: NCI tumour cell line growth inhibition, 48 h
Active and inactive are the calls of the source. Rule as the data show it: active = GI50 up to about 1.1 µM and inactive = higher.

For orientation, consider the following solved cases.
| compound | test value |
| --- | --- |
| O=C(Nc1ccc(C(F)(F)F)cc1[N+](=O)[O-])C(=O)C(C(=O)c1ccc2ccccc2c1)C1OC(=O)c2ccccc21 (centres undefined) | 6.38 µM (inactive) |
| CC1=NN=C(N)NC1=CC(Sc1ccc(Cl)cc1)c1c(O)ccc2ccccc12 (centres undefined) | 19.3 µM (inactive) |
| Cc1c(O)c(OC2OC(CO)C(O)C(O)C2O)cc2c1CC[C@@H]1C2(C)C(=O)C[C@]2(C)[C@@H]([C@@](C)(O)C(O)CCC(C)(C)O)[C@H](O)C[C@@]12C (some centres undefined) | > 100 µM (inactive) |
| CC1OC1P(=O)(O)O (centres undefined) | > 100 µM (inactive) |
| Cc1nn(C(=O)c2ccncc2)c2c1C(c1ccc([N+](=O)[O-])cc1)SC(=N)N2 (centres undefined) | > 100 µM (inactive) |
| C=C(C)C1Cc2cc(C(C)=O)ccc2O1 (centres undefined) | > 100 µM (inactive) |
| COc1ccc(-n2c(=O)c3nc[nH]c3n(-c3ccc(OC)cc3)c2=S)cc1 | > 100 µM (inactive) |
| CC(=O)[C@@H](C)C(=O)N1C(=O)OC[C@@]12[C@@H]1CC[C@@H](C1)C2(C)C | > 100 µM (inactive) |

Consider the record given below.
Answer with the recorded GI50 for the compound listed here: O=C1NC(=S)NC(=O)C1C(c1ccc([N+](=O)[O-])cc1)C1C(=O)NC(=S)NC1=O.c1ccncc1
> 100 µM (inactive)

----------
# System: MCF7
# procedure text: NCI tumour cell line growth inhibition, 48 h
Activity calls are given as the source filed them. Rule as the data show it: active = GI50 up to about 1.1 µM and inactive = higher.
Could you please pick one outcome from this set? true (1) (active), false (0) (inactive)

| compound | discrete label |
| --- | --- |
| CO[C@@H]1C[C@H]2[C@@H]3CC[C@H]([C@@H](C)CO)[C@@]3(C)CC[C@@H]2[C@@]2(C)CC[C@H]3C[C@]312 | false (0) |
| COc1cccc(CCNc2c(C#N)c3nc4ccccc4n3c3ccccc23)c1 | true (1) |
| O=C(NCCN1CCCCC1)c1ccc(I)cc1 | false (0) |
| CCOC(=O)c1nc2ccccc2nc1NCc1ccc(OC)cc1 | false (0) |

Hey, what did the test say about CCOc1ccc(NCc2cc(OC)c(OC)c(OC)c2)cc1 ?
true (1)

Hey, what did the test say about CCOC1CC(C)N(C(=O)c2ccccc2)O1 (stereo unspecified) ?
false (0)

Hey, what did the test say about O=C(NN=C1NCCN1)c1ccco1 ?
false (0)

Hey, what did the test say about CN(C)CCCOCCn1c2c(c3ccccc31)CCCC2 ?
false (0)

Hey, what did the test say about CC[C@H](C)c1occ2c(O)c(C(=O)O)c(=O)cc-2c1C ?
false (0)

Hey, what did the test say about CCOC(=O)c1c(-c2ccccc2)nc2ccccc2c1O ?
false (0)

Hey, what did the test say about COC(=O)C1(C(=O)OC)N=C(C)OC1C(C)C (stereo unspecified) ?
false (0)

----------
# Test system: MCF7
# procedure text: NCI tumour cell line growth inhibition, 48 h
The source made the active and inactive calls. No stated cut-off is given here; in the data, active = GI50 up to about 1.1 µM and inactive = higher.
readout: GI50

For orientation, consider the following solved cases.
| molecule | GI50 |
| --- | --- |
| NC(CCC(=O)NC(CSCC1C(=O)Nc2ccccc21)C(=O)NCC(=O)O)C(=O)O (stereo not drawn) | 3.75 µM (inactive) |
| Brc1ccc2c(-c3nc(-c4c[nH]c5ccccc45)cs3)c[nH]c2c1 | 28.8 µM (inactive) |
| Fc1ccc2c(c1)nc1n2C(c2c(F)cccc2F)SC1 (stereo not drawn) | 42.1 µM (inactive) |
| S=c1sc2c(s1)SCc1cccc(n1)CSc1sc(=S)sc1SCc1cccc(n1)CS2 | > 10 µM (inactive) |
| COc1ccc(-n2c(C)nc3ccc(NC(=S)Nc4ccccc4)cc3c2=O)cc1 | 43.2 µM (inactive) |

Answer with the recorded GI50 for the molecule listed here: Cc1ccc(C(=O)Nc2ccc(S(=O)(=O)O)c3cc(S(=O)(=O)O)cc(S(=O)(=O)O)c23)cc1NC(=O)c1cccc(N)c1
> 100 µM (inactive)

Answer with the recorded GI50 for the molecule listed here: CC(=O)[C@@H](C)C(=O)N1C(=O)OC[C@@]12[C@@H]1CC[C@@H](C1)C2(C)C
> 100 µM (inactive)

Answer with the recorded GI50 for the molecule listed here: Cc1cccc(-n2c(C)nc3ccc(NC(=S)Nc4ccccc4)cc3c2=O)c1
67 µM (inactive)
